- Assay remarks: Energy transfer
- Assay type: binding
- Experimental context: value in parenthesis
Measurement label: Relative K′ of bis-ANS (energy transfer), normalized to wild-type

- BMPR-II Wild type: human recombinant BMPR-II receptor extracellular domain (ECD), wild type, expressed in E. coli (protein, left off: TRX, N-terminal, cleaved | His6, C-terminal, state not stated) ASQNQERLCAFKDPYQQDLGIGESRISHENGTILCSKGSTCYGLWEKSKGDINLVKQGCWSHIGDPQECHYEECVVTTTPPSIQNGTYRFCCCSTDLCNVNFTENFPPPDTTPLSPPHSFNRDET: 1.0
- S107P: BMPR-II ECD naturally occurring single-amino-acid-substitution mutant S107P (protein, left off: TRX, N-terminal, cleaved | His6, C-terminal, state not stated) ASQNQERLCAFKDPYQQDLGIGESRISHENGTILCSKGSTCYGLWEKSKGDINLVKQGCWSHIGDPQECHYEECVVTTTPPPIQNGTYRFCCCSTDLCNVNFTENFPPPDTTPLSPPHSFNRDET: 0.9
- G47N: BMPR-II ECD naturally occurring single-amino-acid-substitution mutant G47N (protein, left off: TRX, N-terminal, cleaved | His6, C-terminal, state not stated) ASQNQERLCAFKDPYQQDLGINESRISHENGTILCSKGSTCYGLWEKSKGDINLVKQGCWSHIGDPQECHYEECVVTTTPPSIQNGTYRFCCCSTDLCNVNFTENFPPPDTTPLSPPHSFNRDET: 2.3
- Y40G: BMPR-II ECD single-amino-acid-substitution mutant Y40G (protein, left off: TRX, N-terminal, cleaved | His6, C-terminal, state not stated) ASQNQERLCAFKDPGQQDLGIGESRISHENGTILCSKGSTCYGLWEKSKGDINLVKQGCWSHIGDPQECHYEECVVTTTPPSIQNGTYRFCCCSTDLCNVNFTENFPPPDTTPLSPPHSFNRDET: 0.6
- ActR-IIB Wild type: human recombinant ActR-IIB receptor extracellular domain (ECD), wild type, expressed in E. coli (protein, UniProt Q13705 19-137, looked up, extracellular domain) extracellular domain: SGRGEAETRECIYYNANWELERTNQSGLERCEGEQDKRLHCYASWRNSSGTIELVKKGCWLDDFNCYDRQECVATEENPQVYFCCCEGNFCNERFTHLPEAGGPEVTYEPPPTAPTLLT: 1.0
